test system: L1210; experiment: Cytostatic activity in mouse L1210 cells assessed as inhibition of cell growth after 72 hrs; format: functional, cell-based; conditions: L1210, 72 h
readout name: IC50 (µM)
Give the quantity in µM, number only.

Worked cases, IC50 given:
OCCN(CCO)Cc1ncnc2c1ncn2[C@@H]1O[C@H](CO)[C@@H](O)[C@H]1O : 14.3
[N-]=[N+]=NCc1ncnc2c1ncn2[C@@H]1O[C@H](CO)[C@@H](O)[C@H]1O : 1.59
OC[C@H]1O[C@@H](n2cnc3c(CN4CCSC4)ncnc32)[C@H](O)[C@@H]1O : 7.8

# next molecule below
Q) GET /values?readout=IC50&item= CC(C)N(Cc1ncnc2c1ncn2[C@@H]1O[C@H](CO)[C@@H](O)[C@H]1O)C(C)C
A) 17

---

test system: L1210; assay: Cytostatic activity in mouse L1210 cells assessed as inhibition of cell growth after 72 hrs; assay type: functional, cell-based; details: L1210, 72 h
readout name: pIC50
Quick note: pIC50 means taking -log10 of the concentration in moles per liter.

Q) GET /values?readout=pIC50&item= OC[C@H]1O[C@@H](n2cnc3c(CN4CCCCC4)ncnc32)[C@H](O)[C@@H]1O
A) 4.92

Q) GET /values?readout=pIC50&item= CN(C)Cc1ncnc2c1ncn2[C@@H]1O[C@H](CO)[C@@H](O)[C@H]1O
A) 5.29

Q) GET /values?readout=pIC50&item= CN(Cc1ccccc1)Cc1ncnc2c1ncn2[C@@H]1O[C@H](CO)[C@@H](O)[C@H]1O
A) 5.32

Q) GET /values?readout=pIC50&item= O=c1[nH]c(=O)n([C@H]2C[C@H](O)[C@@H](CO)O2)cc1F [FLOXURIDINE]
A) 7.92
